Here we gather IC50 data for Polyunsaturated fatty acid 5-lipoxygenase (Rattus norvegicus) reported by several publications.
- measurementTarget: Polyunsaturated fatty acid 5-lipoxygenase (Rattus norvegicus)
- Sequence (P12527 whole entry): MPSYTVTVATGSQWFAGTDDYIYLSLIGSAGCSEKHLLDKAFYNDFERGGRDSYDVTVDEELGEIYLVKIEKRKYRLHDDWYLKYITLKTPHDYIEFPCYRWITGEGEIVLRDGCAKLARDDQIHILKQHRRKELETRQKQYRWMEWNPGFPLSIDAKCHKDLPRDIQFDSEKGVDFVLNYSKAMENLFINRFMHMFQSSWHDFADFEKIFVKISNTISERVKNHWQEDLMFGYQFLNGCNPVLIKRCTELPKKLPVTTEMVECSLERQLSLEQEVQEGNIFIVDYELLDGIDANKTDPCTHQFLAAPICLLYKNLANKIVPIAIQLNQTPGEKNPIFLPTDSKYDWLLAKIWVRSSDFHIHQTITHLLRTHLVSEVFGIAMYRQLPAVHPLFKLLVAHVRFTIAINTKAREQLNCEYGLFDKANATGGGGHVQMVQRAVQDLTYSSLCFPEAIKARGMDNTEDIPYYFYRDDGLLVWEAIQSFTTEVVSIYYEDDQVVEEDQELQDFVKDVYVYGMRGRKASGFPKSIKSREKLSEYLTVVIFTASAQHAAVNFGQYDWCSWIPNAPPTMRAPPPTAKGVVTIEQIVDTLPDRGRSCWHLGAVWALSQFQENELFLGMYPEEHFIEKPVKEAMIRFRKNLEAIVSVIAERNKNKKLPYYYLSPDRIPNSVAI
Label Y when IC50 is strictly below 500 nM; at or above that, label N.

# compound, group
measured = [
    ("COC(=O)CCC(=O)Nc1cccc(OCc2ccc3ccccc3n2)c1C", "N"),
]

Is the reported IC50 for "O=S(=O)(Nc1ccc2ccc(OCc3ccc4ccccc4n3)cc2c1)C(F)(F)F" strictly below 500 nM?
Y

Item COc1ccc(COc2ccc3c(c2)CCC3N(O)C(N)=O)cc1 (centres undefined) : IC50 beneath 500 nM, strictly?
N

Does the reported IC50 of the following compound sit strictly below 500 nM? Cc1ccc(SCCCC(CN)c2ccc(F)cc2)cc1.Cl (stereo in doubt)
N

Would you kindly verify if IC50 of CCOCCC1CN(c2ccccc2)NC1=O (centres undefined) is strictly less than 500 nM?
Y

Input "COCc1cn(-c2ccccc2)[nH]c1=O" ; condition: IC50 strictly below 500 nM. Does it hold?
N
